# target or system: Neuronal acetylcholine receptor; alpha3/beta4 (Homo sapiens, UniProt P30926+P32297)
# Sequence (P30926 whole entry): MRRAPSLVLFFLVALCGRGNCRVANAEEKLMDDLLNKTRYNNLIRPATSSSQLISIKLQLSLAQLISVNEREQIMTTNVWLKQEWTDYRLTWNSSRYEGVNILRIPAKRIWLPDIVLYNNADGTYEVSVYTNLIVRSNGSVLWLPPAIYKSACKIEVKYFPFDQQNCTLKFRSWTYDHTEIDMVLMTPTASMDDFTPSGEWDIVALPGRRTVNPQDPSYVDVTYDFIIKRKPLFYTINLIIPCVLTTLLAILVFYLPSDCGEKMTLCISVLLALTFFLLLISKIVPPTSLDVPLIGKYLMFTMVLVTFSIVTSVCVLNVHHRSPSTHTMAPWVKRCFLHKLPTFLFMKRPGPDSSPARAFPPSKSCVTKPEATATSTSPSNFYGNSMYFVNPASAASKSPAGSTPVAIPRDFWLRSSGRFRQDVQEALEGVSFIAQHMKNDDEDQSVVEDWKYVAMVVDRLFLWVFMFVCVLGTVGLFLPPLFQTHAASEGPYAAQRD
# Sequence (P32297 whole entry): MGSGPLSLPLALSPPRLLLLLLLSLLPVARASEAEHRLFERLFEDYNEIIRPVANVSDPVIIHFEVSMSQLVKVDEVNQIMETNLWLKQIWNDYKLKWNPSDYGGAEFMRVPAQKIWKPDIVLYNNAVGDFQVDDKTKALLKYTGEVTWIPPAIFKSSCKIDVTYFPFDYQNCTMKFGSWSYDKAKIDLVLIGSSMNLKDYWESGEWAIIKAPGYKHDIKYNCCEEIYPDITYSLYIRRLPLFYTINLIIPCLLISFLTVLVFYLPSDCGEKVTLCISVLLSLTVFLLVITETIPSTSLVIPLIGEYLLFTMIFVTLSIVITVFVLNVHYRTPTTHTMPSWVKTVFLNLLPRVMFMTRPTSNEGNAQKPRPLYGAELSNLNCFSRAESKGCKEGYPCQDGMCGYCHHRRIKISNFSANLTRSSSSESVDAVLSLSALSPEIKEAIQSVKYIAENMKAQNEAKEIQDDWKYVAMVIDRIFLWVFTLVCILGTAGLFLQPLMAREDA
# run description: Antagonist activity at human nAChR alpha3/beta4 receptor expressed in HEK ts201 cells assessed as calcium accumulation by fluorescence analysis
# Type: functional, cell-based
# stated conditions: read-out: pIC50 (converted)
Quick rule for you: IC50 under 20 µM gets Fulfilled, anything else gets Not fulfilled.

# molecule, class name
rows = [
    ("C[N+]1(C)CCCC(COC(=O)c2ccccc2-c2ccccc2)C1 (single isomer, unassigned)", "Fulfilled"),
    ("O=C(OCC1CCCN(C(=O)CCc2ccccc2)C1)c1ccccc1-c1ccccc1 (stereo unspecified)", "Not fulfilled"),
    ("CCN1CCCC(COC(=O)c2ccccc2N2C(=O)CC(Cc3ccccc3)C2=O)C1 (stereo unspecified)", "Fulfilled"),
]

Quick check: IC50 of CN1CCCC(COC(=O)c2ccccc2-c2ccccc2)C1 (single isomer, unassigned) under 20 µM?
Fulfilled

Quick check: IC50 of CC1CC(=O)N(c2ccccc2C(=O)OCC2CCCN(CCCC3CCCCC3)C2)C1=O (stereo unspecified) under 20 µM?
Fulfilled

Quick check: IC50 of c1ccc(CCCN2CCCC(COCc3ccccc3-c3ccccc3)C2)cc1 (stereo unspecified) under 20 µM?
Fulfilled
